Tested on: A549/ATCC NSCLC
Experiment: NCI-60 one-dose screen, 48 h (100 = growth as untreated, 0 = no growth, -100 = all killed)
Details: 10 µM unless noted
About 83,000 compounds went through this panel and 20% of them were active in at least one assay; those are over-represented in the sample as a whole.
outcome-measure: growth (%)
Could you give me the number in %? Just the number is fine.

CC(Sc1ccccc1)C(=O)O (stereo unspecified) | 99.3
CC(C)=CCc1cc(O)c(O)c2oc3cc(O)cc(O)c3c(=O)c12 | 43.3
CCCCCO/N=C\c1c2c(O)c3c(O)c(C)c4c(c3c1O)C(=O)C(C)(O/C=C\C(OC)C(C)C(OC(C)=O)C(C)C(O)C(C)C(O)C(C)/C=C\C=C(\C)C(=O)N2)O4 (stereo unspecified) | 20.9
COc1ccc(-c2cc3cnc4ccccc4c3oc2=O)cc1 | 101
CCCCn1c(C(=O)c2c[nH]c3ccccc23)n[nH]c1=S | 92.3
Cc1cccc(Cc2cnc(NC(=O)CCCOc3ccc(Cl)cc3)s2)c1 | 10.7
COc1ccc2c(c1)CCNC21C(=O)Nc2c(Br)cc(Br)cc21 (stereo unspecified) | 99.2
O=C1C=C(Nc2ccccc2)c2ncccc2C1=O | -49

I'd like to know its growth. The molecule in question is CCCCCCCCCCCCCCCC(=O)O[C@@H]1[C@@H](O)[C@@H](O)C([C@H](NC(=O)[C@@H]2C[C@@H](CCC)CN2C)[C@H](C)Cl)O[C@@H]1SC (stereo partly specified)
102

CCCCCCCCn1ccc2cc(NC(=O)CN3CCN(c4nc(C)cc(N5CCCCC5)n4)CC3)ccc21 ?
83.4

COc1cc(-c2[nH]ncc2Nc2ccc(Cl)cc2)cc(OC)c1OC ?
67.6

NCCOCCOc1ccccc1 ?
104

----------
System: EKVX NSCLC
Assay: NCI-60 one-dose screen, 48 h (100 = growth as untreated, 0 = no growth, -100 = all killed)
Details: 10 µM unless noted
Compounds without any hit were thinned out: in the full panel of roughly 83,000, 20% have a hit. Active and inactive are the calls of the source. Rule for the calls: active = growth percent below 10; inactive = the rest.
outcome-measure: growth

Consider the following illustrative entries.
Cc1ccc(S(=O)(=O)Nc2cc(Sc3ccccc3)c(O)c3ccccc23)cc1 | 116% (inactive)
C[C@]12CCc3c(ccc4cc(O)ccc34)[C@@H]1C[C@H](O)[C@@H]2O | 74.7% (inactive)
Clc1nccc2c(-c3csc(-c4c[nH]c5ccc(Br)cc45)n3)c[nH]c12 | 42.5% (inactive)
Cc1cccc(-c2nnc(SCC(=O)Nc3ncc(Cc4ccccc4)s3)n2N2C(=O)CSC2=S)c1 | 73.4% (inactive)

Now take the following compound into account.
I'd like to know its growth. The compound in question is CCOC(=O)c1cnn(CC(O)CC)c1NC(=O)NCc1ccccc1C(F)(F)F (stereo not given)
91.8% (inactive)

----------
Tested on: ACHN renal
Test: NCI-60 one-dose screen, 48 h (100 = growth as untreated, 0 = no growth, -100 = all killed)
Conditions: 10 µM unless noted
Compounds without any hit were thinned out: in the full panel of roughly 83,000, 20% have a hit. Activity calls are given as the source filed them. The calls were made as follows: active = growth percent below 10; inactive = the rest.
Recorded growth by entry

Consider the following illustrative entries.
N=C(N)SCc1c2ccccc2c(CSC(=N)N)c2ccccc12 | 51.2% (inactive)
Cc1ccc(-c2nc3nc(-c4ccc(Cl)cc4)nc(N4CCCNCC4)c3o2)cc1 | -98.9% (active)
O=C1c2cccc3cccc(c23)C(=O)N1N1C(=O)c2cccc3c(N4CCNCC4)ccc(c23)C1=O | 87.8% (inactive)
C=C(CNCCc1ccc(O)cc1)[C@@H]1CC[C@]2(CO)CC[C@]3(C)[C@H](CC[C@@H]4[C@@]5(C)CCC(NCCc6ccc(O)cc6)C(C)(C)[C@@H]5CC[C@]43C)[C@@H]12 (some centres undefined) | -98.9% (active)
CC1=CC=C(NC(=O)/C=C/c2ccccc2)CC1Nc1nccc(-c2cccnc2)n1 (centres undefined) | 50.3% (inactive)
COc1ccc(-c2ccc(-c3ccc(C(=N)N)cn3)o2)cc1Cl | 17.3% (inactive)

I'd like to know its growth. The compound in question is C/C=C(\C)C(=O)N[C@H]1CC[C@]2(C)C3CC[C@@]4(C)C(CC[C@@H]4C(C)N(C)C)C3CCC2[C@H]1OC(C)=O (some centres undefined)
-65.1% (active)

CCOC(=O)c1cnn(CC(O)CC)c1NC(=O)NCc1ccccc1C(F)(F)F (centres undefined) ?
102% (inactive)

COc1cc(/C=N/NC(=O)CCN2c3ccccc3Sc3ccccc32)cc(OC)c1OC ?
76% (inactive)

O=C(Nc1ncc(Cc2cccc(C(F)(F)F)c2)s1)c1ccc(-n2cnnn2)cc1 ?
32% (inactive)

Nc1ccc(-c2ccc(N)c(Br)c2)cc1Br ?
76.5% (inactive)

Cc1ccc2c(c1)C(C)Cc1c(ncnc1-n1cnc3cc(C)ccc31)N2C (centres undefined) ?
26.6% (inactive)

----------
System: OVCAR-8 ovarian
Experiment: NCI-60 one-dose screen, 48 h
Conditions: 10 µM unless noted
Compounds without any hit were thinned out: in the full panel of roughly 83,000, 20% have a hit. Calls of active or inactive are those of the source. The calls were made as follows: active = growth percent below 10; inactive = the rest.
// allowed return values: active, inactive

Completed entries (count: 4):
C=CCNC(=O)Cc1c(-c2ccc(OC)cc2)oc2c(OC)c3c(c(OC)c12)OCO3 | inactive
CC(C)(C)CC(N)=O | inactive
CCOC(=O)c1c(-c2ccc(OC)cc2)c(C#N)c2c(C#N)c(N)nn2c1N | inactive
CC/C=C\C/C=C\C[C@H](O)C/C=C1/C(=O)C=C[C@@H]1C/C=C\CCCC(=O)OC | active

Record request — test call for COc1ccc(/C=C2/C(=O)N=C3N2NC(c2ccccc2)=CN3c2ccccc2)cc1
inactive

Nc1nc(CSc2n[nH]c(N)n2)nc(Nc2ccccc2)n1 ?
inactive

----------
System: COLO 205 colon
Assay: NCI-60 one-dose screen, 48 h (100 = growth as untreated, 0 = no growth, -100 = all killed)
Conditions: 10 µM unless noted
Compounds without any hit were thinned out: in the full panel of roughly 83,000, 20% have a hit.
outcome-measure: growth (%)
Could you give me the number in %? Just the number is fine.

Consider the following illustrative entries.
Cc1ccc(-c2nc(SCC(=O)c3ccc(C#N)cc3)[nH]c(=O)c2C#N)cc1 | 88.9
C=C1C(=O)O[C@@H]2[C@H]3[C@H](COC(C)=O)[C@@H](OC(C)=O)C[C@H]3C(=C)[C@@H](O)C[C@@H]12 | 100
CCCCCCCCCCCCCCCCCCOc1cccc(CC(=O)OCC[N+](CC)(CC)CC)c1 | 47
Cc1ccc2c(c1)C(C)Cc1c(ncnc1-n1cnc3cc(C)ccc31)N2C (stereo not given) | -51.2

Now take the following molecule into account.
I'd like to know its growth. The molecule in question is CCC(=C(c1ccc(OCCCN(C)C)cc1)c1ccc(OCCCN(C)C)cc1)c1ccc(Cl)cc1
-67.3

----------
Tested on: SF-539 CNS
Assay: NCI-60 one-dose screen, 48 h (100 = growth as untreated, 0 = no growth, -100 = all killed)
Conditions: 10 µM unless noted
The panel holds about 83,000 compounds, 20% with a hit somewhere; the sample as a whole holds those more often.
Recorded growth by entry
Could you give me the number in %? Just the number is fine.

Consider the following illustrative entries.
CCCCC#Cc1c(/C=C(\CCCC)SCC)n(C)c(=O)[nH]c1=O | 98.4
CN1CCN(c2ccc(/C=C/C(=O)c3ccc(O)cc3)cc2)CC1 | 91.9
BrC1=C(Br)C(Br)(Br)C(Br)=C1Br | 82.2
C[C@@H]1O[C@@H](O[C@H]2[C@@H](OC(=O)[C@]34CCC(C)(C)C[C@H]3C3=CC[C@@H]5[C@@]6(C)C[C@H](O)[C@H](O[C@@H]7O[C@H](CO)[C@@H](O)[C@H](O)[C@H]7O)[C@@](C)(CO)[C@@H]6CC[C@@]5(C)[C@]3(C)C[C@H]4O)OC[C@@H](O)[C@@H]2O)[C@H](O)[C@H](O[C@@H]2OC[C@@H](O)[C@H](O[C@@H]3OC[C@](O)(CO)[C@H]3O[C@@H]3OC[C@@H](O)[C@H](O)[C@H]3O)[C@H]2O)[C@H]1O[C@@H]1OC[C@](O)(CO)[C@H]1O | 85.5

I'd like to know its growth. The molecule in question is CNC(=O)c1cc(Oc2ccc3nc(NC(=O)Nc4ccc(C(F)(F)F)cc4)sc3c2)ccn1
82.2

COc1ccc2c(c1)CCNC21C(=O)Nc2c(Br)cc(Br)cc21 (stereo unspecified) ?
94

COc1ccc(-c2cc3cnc4ccccc4c3oc2=O)cc1 ?
102

COc1ccccc1/C=C1\COc2ccc(O)c(O)c2C1=O ?
-23.5

COc1ccc(-c2[nH]c3ccccc3c2-c2ccc(OC)cc2)cc1 ?
45.3

Cc1ccc(S(=O)(=O)OC[C@@]2(C)CC[C@]3(C)CC[C@]4(C)C(=CC[C@@H]5[C@@]6(C)CCCNC(C)(C)[C@@H]6CC[C@]54C)[C@@H]3C2)cc1 ?
-93.2

COC(=O)/C=C1/SC(N2N=C(c3cccs3)CC2c2ccc(F)cc2)=NC1=O (stereo unspecified) ?
91.6
